# TARGET_SYSTEM: ScLsb1
# ASSAY_REMARKS: SPOT peptide array binding signal intensity (averaged, normalized) (arbitrary units (background-subtracted, floor 0; scale differs between SH3 domains)); higher = stronger binding of the SH3 domain to the peptide
MEASURED_PROPERTY: SPOT peptide array binding signal intensity

The following binders have reported results that may help.
FFRRSELYLPNSSKA : 6.25
SKIRPTPRKPSRMAT : 328
SNRRPVPRRPSQPLN : 425

Q: Would you mind telling me what SPOT peptide array binding signal intensity value was observed for "ERPKRRAPPPVPKKP" ?
Ans: 101

Q: Value lookup for SPOT peptide array binding signal intensity; key = "LSKRLPLRFPEHTSS"
Ans: 4

Q: For "RKNRAPPQRPRFNRD" , what is its reported SPOT peptide array binding signal intensity?
Ans: 248

Q: Looking for the measured SPOT peptide array binding signal intensity of "LPPPPPPPPPPPLPQ" , can you help?
Ans: 0.5

These data points were gathered from the supplement of paper PMC4466140.
